# system tested: T1, EpCAM on DU145, PC3 and MCF-7 cancer cells (Homo sapiens (DU145, PC3, MCF-7), UniProt P16422)
# T1 construct: Epithelial cell adhesion molecule (EpCAM), endogenous on the three EpCAM+ human cancer cell lines DU145, PC3 and MCF-7; also called Epithelial cell adhesion molecule; source: endogenous, on DU145, PC3 and MCF-7 cells
# T1 sequence (P16422 24-314): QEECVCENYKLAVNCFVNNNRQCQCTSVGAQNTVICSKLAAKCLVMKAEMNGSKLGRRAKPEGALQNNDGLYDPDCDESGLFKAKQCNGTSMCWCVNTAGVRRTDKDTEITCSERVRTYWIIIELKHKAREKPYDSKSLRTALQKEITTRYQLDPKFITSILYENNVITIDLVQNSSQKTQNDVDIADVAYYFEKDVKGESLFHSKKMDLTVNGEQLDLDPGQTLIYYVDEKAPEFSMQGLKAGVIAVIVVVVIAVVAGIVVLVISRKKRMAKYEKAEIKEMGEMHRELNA
# protocol details: flow cytometry on cells; cells (1 × 10^6/mL) incubated with the sdAbs at 4°C for 1 h; detection with FITC-conjugated protein A; 293T and 3T3 cells as negative controls
# experimental parameters: one partner purified

binder | binding result
aEP3D4 (VHH, fully human VH single-domain antibody from a phage library (Source BioScience); Human VH-only sdAb (not camelid), not Fc-fused; cloned into pET-22b by Not I and Nco I sites; also called anti-EpCAM sdAb aEP3D4; source: E. coli BL21 (DE3), purified (Ni-NTA)) VHH: QVQLLESGGGLVQPGGSLRLSCAASGVKFSNHDMTWVRQAPGKGLEWVSAINSGGGSTYYADSVKGRFTISRDNSKNTLYLQMNSLRAEDTAVYYCARMGRQARVPHHMRFWGQGTLVTVSS | binds
aEP4G2 (VHH, fully human VH single-domain antibody from a phage library (Source BioScience); Human VH-only sdAb (not camelid), not Fc-fused; cloned into pET-22b by Not I and Nco I sites; also called anti-EpCAM sdAb aEP4G2; source: E. coli BL21 (DE3), purified (Ni-NTA)) VHH: QVQLLESGGGLVQPGGSLRLSCAASGFTFSYNNMAWVRQAPGKGLEWVSAIEGKDGSTYYADSVKGRFTISRDNSKNTLYLQMNSLRAEDTAVYYCARRKGRTEKLSYWGQGTLVTVSS | binds
aEP3B2 (VHH, fully human VH single-domain antibody from a phage library (Source BioScience); Human VH-only sdAb (not camelid), not Fc-fused; cloned into pET-22b by Not I and Nco I sites; also called anti-EpCAM sdAb aEP3B2; source: E. coli BL21 (DE3), purified (Ni-NTA)) VHH: QVQLLESGGGLVQPGGSLRLSCAASGDRVSYKFMAWVRQAPGKGLEWVSSIRGNDGSTYYADSVKGRFTISRDNSKNTLYLQMNSLRAEDTAVYYCARKGKRHYELPYWGQGTLVTVSS | binds
